meta.source: PubChem BioAssay (NCI)

- System: U251 CNS
- TEST_PROTOCOL: NCI tumour cell line growth inhibition, 48 h
MEASUREMENT_KIND: TGI

The recorded TGI for entry O=C(/C=C/c1csc(-c2ccccc2)n1)NCc1ccc(C(=O)NCCc2ccccc2)cc1 equals > 100 µM

Per the records, this compound ( COc1cccc(-n2ncc3c(N/N=C/c4ccc(C(=O)NCCN(C)C)cc4)ncnc32)c1 ) has TGI equal to 6.77 µM

Measured TGI, Cc1csc(=S)n1OC(=O)NC1CCCCC1 : > 100 µM

The measured TGI associated with CCc1ccccc1NC(=O)C(=O)CC(=O)c1sc(Nc2ccccc2)nc1C reads > 100 µM

Form: compound = COC12OC3(C4OC41)C(C(=O)O[C@H]3CO[Si](C)(C)C(C)(C)C)C2C(=O)Oc1ccccc1 (stereo partly specified) ; TGI = > 100 µM

Lab book: TGI of CCOC(=O)N/N=C(/OCC)c1ccccc1 noted as > 100 µM

# TGI of O=C1C=C2C(=NC34CCCCC3C(c3ccccc3)C3=C(c5ccccc5CC3)N24)c2ccccc21 (stereo unspecified) = > 10 µM

O=C(/C=C/c1ccccc1)c1cc(Br)ccc1O has a reported TGI of 29.9 µM

Summary for this compound, CNC(=O)OC(C)CN1c2ccccc2Sc2ccc(Cl)cc21 (stereo unspecified) : TGI is > 10 µM

// recorded TGI for Cc1c(/C=N/NC(=O)c2cc(Br)cc(Br)c2O)c(=O)n(-c2ccccc2)n1C : > 100 µM

In plain terms, NC1CC(=O)c2sc(I)cc21 (stereo unspecified) has a documented TGI of > 100 µM

The reported value for O=c1cc(-c2ccccc2)[nH]c2ccccc12 in terms of TGI is > 100 µM

Sure, the documented TGI for C=CCOc1cccc(/C=C2\SC(=Nc3ccc(O)cc3)NC2=O)c1 is 12.9 µM

The compound identified as N#Cc1c(N2CCCC2)[nH]c(=O)c(C(c2c(Cl)cccc2Cl)c2c(O)c(C#N)c(N3CCCC3)[nH]c2=O)c1O registered its TGI at 95.1 µM

Entry under test: O=C(CCCN1CCC2(CC1)OC(=O)N(c1ccccc1)C2=O)c1ccccc1 . Its TGI was > 100 µM

So for COc1ccc(/C=C2\CCCC3=C2N=C2SC(C)=NN2C3c2ccc(OC)c(OC)c2)cc1OC (stereo unspecified) , the logged TGI turned out to be > 100 µM

response.value for Cc1[nH]ccc2c1[nH]c1cc(=O)ccc12 (field: TGI) = > 100 µM

The value of TGI measured for the compound Cc1ccc(C(=O)c2nnc(C(=O)c3ccc(C)cc3)nn2)cc1 turned out to be > 100 µM

For record COc1ccc(OC)c(/C=C2\SC(=S)NC2=O)c1 the listed TGI is > 100 µM

TGI for O=C1c2cccnc2C(=O)c2nc3cc(N4CCN(C5CC5)CC4)ccc3nc21 is 2.02 µM

The reported TGI of the compound Cn1c(=S)[nH]c2sc3c(c2c1=O)CCSC3 was > 100 µM

Measured TGI, CC#C[C@]1(O)CC[C@H]2[C@@H]3CCC4=CC(=O)CCC4=C3[C@@H](c3ccc4c(c3)OCO4)C[C@@]21C : 410 µM

TGI recorded for this compound, CCC1C(C#N)=C(N)OC2=C1C(=O)CC(C)(C)C2 (stereo unspecified) , is > 100 µM

The reported TGI of the compound COc1ccc(/C(C#N)=C/c2ccccc2OC)cc1 was 78.4 µM

// TGI value for CCN(CC)CC(C)Nc1ccc([N+](=O)[O-])c2sc3ccccc3c(=O)c12 (stereo unspecified) : 10.7 µM

Reported TGI ( CC(=O)OCC1OC(SC2=N/C(=C\c3cc4c(=O)c5ccccc5sc4s3)C(=O)N2c2ccccc2)C(OC(C)=O)C(OC(C)=O)C1OC(C)=O (stereo unspecified) ) = 62.8 µM

Record summary for COc1ccc(/C(=C2/O[C@@H]([C@H]3COC(C)(C)O3)[C@H]3OC(C)(C)O[C@@H]23)c2cc(OC)c(OC)c(OC)c2)cc1O : reported TGI = 43.1 µM

compound CCCC(=O)OC1C(C(O)CO)OC2OC(C)(C)OC21 (stereo unspecified) , TGI observed: > 100 µM

// CCOC(=O)N(Cc1cccs1)c1cc(OC)c(OC)c(OC)c1 : TGI value = > 100 µM

# TGI (compound: COc1ccc(OCc2nc3cc(C(F)(F)F)ccc3nc2-c2ccccc2)cc1 ) is > 100 µM

Lab note: CSc1ncc2c(C#N)c3sc4ccccc4n3c(=O)c2n1 gave TGI of > 100 µM

compound CCCNC1=C(C(=O)OCC)C(=O)CO1 , TGI observed: > 100 µM

For record COc1ccc(-c2c3c(N)nc(-c4ccncc4)nc3nc3c2c(C)nn3-c2ccccc2)cc1 the listed TGI is 19 µM

For this compound ( COc1ccc(/C=C(/C#N)C(N)=O)cc1OC ), measured TGI is > 100 µM

Sure, the documented TGI for CC1=C(Oc2ccccc2)C(CCC(=O)O)c2c(O)cc(Cl)c(O)c21 (stereo unspecified) is > 100 µM

Entry COC(O)C(=O)c1c2c(cc3c1CC1(Cc4cc5c(cc4C1)CCC5)C3)CCC2 (stereo unspecified) ; TGI = 25.7 µM

The reported value for C=CC/C=C/Cc1csc(C(C)(C)C(O)C/C=C/C(=C)CCNC(=O)OC)n1 (stereo unspecified) in terms of TGI is > 100 µM

For this compound ( CCOC(=O)c1c2c(n3ccccc13)C(=O)c1ccccc1C2=O ), measured TGI is > 100 µM

So, CC(=O)OCOC(=O)CN(CC(=O)OCOC(C)=O)Cc1cc2c(cc1OC(C)=O)Oc1cc(OC(C)=O)c(CN(CC(=O)OCOC(C)=O)CC(=O)OCOC(C)=O)cc1C21OC(=O)c2ccccc21 ? Its TGI was 8.5 µM

For COc1ccc(/C=C2\NC(=S)N(CN3CCCCC3)C2=O)cc1 the compound record lists TGI as > 100 µM

Just so you know, measured TGI for COC(=O)[C@H](C[C@H](Cc1ccccc1)NC(=O)c1csc([C@@H](C[C@H](C(C)C)N(C)C(=O)[C@@H](NC(=O)[C@H]2CCCCN2C)C(C)C)OC(C)=O)n1)NC(=O)OCc1ccccc1 came out at > 9 µM
